# study target: human HK 4 (human glucokinase, hGlk) (Homo sapiens)
# Sequence (P35557 1-465): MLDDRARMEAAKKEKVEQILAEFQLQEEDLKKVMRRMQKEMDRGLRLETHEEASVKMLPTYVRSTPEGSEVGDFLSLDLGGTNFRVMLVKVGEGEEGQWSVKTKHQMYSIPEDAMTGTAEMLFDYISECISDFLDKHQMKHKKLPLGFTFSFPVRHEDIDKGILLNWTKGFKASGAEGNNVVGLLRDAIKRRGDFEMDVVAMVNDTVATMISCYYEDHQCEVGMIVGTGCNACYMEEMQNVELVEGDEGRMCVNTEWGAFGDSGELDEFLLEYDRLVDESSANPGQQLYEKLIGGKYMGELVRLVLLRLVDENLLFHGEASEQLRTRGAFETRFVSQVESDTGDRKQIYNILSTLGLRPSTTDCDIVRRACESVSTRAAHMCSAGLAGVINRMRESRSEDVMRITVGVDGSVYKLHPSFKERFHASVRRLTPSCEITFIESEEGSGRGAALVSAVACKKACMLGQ
# test method notes: Specificity assay against human glucokinase
# Format: biochemical
# experimental setup: 10 μM compound; BLD = below level of detection
If the reported % hGlk inhibition (10 μM) equals or exceeds 20%, assign satisfied. If not, assign not satisfied.

Study these solved cases before continuing.
- molecule: "CC(C)(C)c1ccc(C(=O)Nc2cc(Cl)c(-c3ccc(F)cc3)cc2C(=O)O)cc1 [Compound 4n]"
  discrete label: "not satisfied"
- molecule: "CC(C)(C)c1ccc(C(=O)Nc2cc(Cl)c(-c3cccc(F)c3)cc2C(=O)O)cc1 [Compound 4o]"
  discrete label: "not satisfied"
- molecule: "CC(C)(C)c1ccc(C(=O)Nc2cc(Cl)c(-n3cccc3)cc2C(=O)O)cc1 [Compound 4aa]"
  discrete label: "not satisfied"
- molecule: "Cn1nnc(-c2cc(C(=O)O)c(NC(=O)c3ccc(C(C)(C)C)cc3)cc2Cl)n1 [Compound 4ff]"
  discrete label: "not satisfied"
- molecule: "CC(C)(C)c1ccc(C(=O)Nc2cc(Cl)c(-c3ccoc3)cc2C(=O)O)cc1 [Compound 4x]"
  discrete label: "not satisfied"

Assess whether reported % hGlk inhibition (10 μM) for CN(C)c1ccc(-c2cc(C(=O)O)c(NC(=O)c3ccc(C(C)(C)C)cc3)cc2Cl)cc1 [Compound 4l] sits at 20% or higher.
satisfied

Assess whether reported % hGlk inhibition (10 μM) for Cc1ccc(-c2cc(C(=O)O)c(NC(=O)c3ccc(C(C)(C)C)cc3)cc2Cl)cc1 [Compound 4g] sits at 20% or higher.
not satisfied

Assess whether reported % hGlk inhibition (10 μM) for CC(C)(C)c1ccc(C(=O)Nc2cc(Cl)c(-n3ccnc3)cc2C(=O)O)cc1 [Compound 4dd] sits at 20% or higher.
not satisfied

Assess whether reported % hGlk inhibition (10 μM) for COc1cccc(-c2cc(C(=O)O)c(NC(=O)c3ccc(C(C)(C)C)cc3)cc2Cl)c1 [Compound 4j] sits at 20% or higher.
not satisfied

Assess whether reported % hGlk inhibition (10 μM) for CC(C)(C)c1ccc(C(=O)Nc2cc(Cl)c(-n3cccn3)cc2C(=O)O)cc1 [Compound 4cc] sits at 20% or higher.
not satisfied

Assess whether reported % hGlk inhibition (10 μM) for CC(C)(C)c1ccc(C(=O)Nc2cc(Cl)c(-c3ccncc3)cc2C(=O)O)cc1 [Compound 4s] sits at 20% or higher.
not satisfied

Assess whether reported % hGlk inhibition (10 μM) for CC(C)(C)c1ccc(C(=O)Nc2cc(Cl)c(-c3cccnc3)cc2C(=O)O)cc1 [Compound 4t] sits at 20% or higher.
not satisfied

Assess whether reported % hGlk inhibition (10 μM) for COc1ccccc1-c1cc(C(=O)O)c(NC(=O)c2ccc(C(C)(C)C)cc2)cc1Cl [Compound 4k] sits at 20% or higher.
not satisfied

Assess whether reported % hGlk inhibition (10 μM) for Cc1ccccc1-c1cc(C(=O)O)c(NC(=O)c2ccc(C(C)(C)C)cc2)cc1Cl [Compound 4h] sits at 20% or higher.
not satisfied

Assess whether reported % hGlk inhibition (10 μM) for COc1ccc(-c2cc(C(=O)O)c(NC(=O)c3ccc(C(C)(C)C)cc3)cc2Cl)cc1 [Compound 4i] sits at 20% or higher.
satisfied

Assess whether reported % hGlk inhibition (10 μM) for CC(C)(C)c1ccc(C(=O)Nc2cc(Cl)c(-c3ccc4c(c3)OCO4)cc2C(=O)O)cc1 [Compound 4z] sits at 20% or higher.
satisfied

Assess whether reported % hGlk inhibition (10 μM) for CC(C)(C)c1ccc(C(=O)Nc2cc(Cl)c(-c3ccc(C(=O)O)cc3)cc2C(=O)O)cc1 [Compound 4r] sits at 20% or higher.
not satisfied

Assess whether reported % hGlk inhibition (10 μM) for CC(C)(C)c1ccc(C(=O)Nc2cc(Cl)c(-c3ccccc3F)cc2C(=O)O)cc1 [Compound 4p] sits at 20% or higher.
satisfied

Every entry's value here was drawn from paper PMC5808564.
